- assay-system: transketolase (purified TK apo enzyme) (Homo sapiens, UniProt P29401)
- Sequence (P29401 whole entry, species assumed): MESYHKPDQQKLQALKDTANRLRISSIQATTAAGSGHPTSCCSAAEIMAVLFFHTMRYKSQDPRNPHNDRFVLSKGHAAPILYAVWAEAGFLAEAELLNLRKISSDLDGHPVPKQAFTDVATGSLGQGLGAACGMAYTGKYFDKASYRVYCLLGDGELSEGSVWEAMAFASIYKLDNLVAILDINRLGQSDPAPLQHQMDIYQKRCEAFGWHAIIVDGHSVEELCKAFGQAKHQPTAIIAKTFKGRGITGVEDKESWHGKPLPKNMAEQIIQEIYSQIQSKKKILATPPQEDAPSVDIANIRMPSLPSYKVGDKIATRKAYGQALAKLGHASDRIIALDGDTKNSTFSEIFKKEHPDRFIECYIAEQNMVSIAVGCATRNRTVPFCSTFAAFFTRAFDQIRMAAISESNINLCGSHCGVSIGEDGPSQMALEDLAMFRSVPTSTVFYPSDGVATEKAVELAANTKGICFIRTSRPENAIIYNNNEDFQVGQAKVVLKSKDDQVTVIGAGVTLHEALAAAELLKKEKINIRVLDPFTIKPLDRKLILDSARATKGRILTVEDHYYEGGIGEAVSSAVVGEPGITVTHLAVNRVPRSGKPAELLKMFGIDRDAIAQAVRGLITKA
- assay-info: TPK-apoTK coupled cell-free TK inhibition assay (pyrophosphorylated compounds competing with TPP)
- Type: biochemical
- test-settings: compound enzymatically pyrophosphorylated by TPK1; 100 nM TK, 20 μM TPP
So I've got a bunch of compounds here, and I need their IC50 values.
Give bare numbers, in nM.

Field: example entries. Status: answers known.
[[record]]
compound = "Cc1c(CCO)sc[n+]1Cc1cccnc1C#N"
assay_system = "transketolase (purified TK apo enzyme) (Homo sapiens, UniProt P29401)"
units_symbol = "nM"
reported_measurement = 123

[[record]]
compound = "Cc1c(CCO)sc[n+]1Cc1ccc(C#N)nc1N"
assay_system = "transketolase (purified TK apo enzyme) (Homo sapiens, UniProt P29401)"
units_symbol = "nM"
reported_measurement = 57.1

[[record]]
compound = "COC(=O)c1cncc(C[n+]2csc(CCO)c2C)c1"
assay_system = "transketolase (purified TK apo enzyme) (Homo sapiens, UniProt P29401)"
units_symbol = "nM"
reported_measurement = 382

[[record]]
compound = "CCc1sc(CCO)c(C)[n+]1Cc1ccc(C)nc1N"
assay_system = "transketolase (purified TK apo enzyme) (Homo sapiens, UniProt P29401)"
units_symbol = "nM"
reported_measurement = 75.5

[[record]]
compound = "Cc1c(CCO)sc[n+]1Cc1cncnc1"
assay_system = "transketolase (purified TK apo enzyme) (Homo sapiens, UniProt P29401)"
units_symbol = "nM"
reported_measurement = 1430

[[record]]
compound = "Cc1ccc(C[n+]2csc(CCO)c2CO)c(N)n1"
assay_system = "transketolase (purified TK apo enzyme) (Homo sapiens, UniProt P29401)"
units_symbol = "nM"
reported_measurement = 25.1

[[record]]
compound = "Cc1c(CCO)sc[n+]1Cc1cnccc1N"
assay_system = "transketolase (purified TK apo enzyme) (Homo sapiens, UniProt P29401)"
units_symbol = "nM"
reported_measurement = 64.2

[[record]]
compound = "Cc1ccc(C[n+]2csc(CCO)c2)c(N)n1"
assay_system = "transketolase (purified TK apo enzyme) (Homo sapiens, UniProt P29401)"
units_symbol = "nM"
reported_measurement = 29.1


// for each compound below, give its IC50
1. CC(=O)Nc1ccc(C[n+]2csc(CCO)c2C)c(N)n1
2. Cc1ncc(C[n+]2c(C(C)O)sc(CCO)c2C)c(N)n1 (stereo not shown)
3. Cc1ccc(C[n+]2cc(CCO)sc2C)c(N)n1
4. Cc1ccc(C[n+]2c(C(C)O)sc(CCO)c2C)c(N)n1 (stereo not shown)
5. Cc1c(CCO)sc[n+]1Cc1cncc(C#N)c1

Output line:
[22.5, 851, 35.6, 91.4, 294]
